Tested on: SNB-75 CNS
Procedure Summary: NCI tumour cell line growth inhibition, 48 h
Observed Property: TGI (µM)
Give the quantity in µM, number only.

Molecule: CCOC(=O)c1cc(=C2\CCN(CC(C)CC)C2=S)/c(=C(/O)CC)[nH]1 (configuration not stated)
Assay System: SNB-75 CNS
TGI / µM: 36.9

Next molecule, please.
What TGI value was documented for this molecule, NC(N)=N/N=C(/c1ccccc1)c1ccc(F)cc1 ? 3.09

---

Below is a list of entries, each paired with its recorded TGI value.
Test system: PC-3 prostate
Procedure Summary: NCI tumour cell line growth inhibition, 48 h

// solved cases for TGI follow
Compound: CC(C)(C)c1cc(O)c(O)c(C(C)(C)C)c1
Assay System: PC-3 prostate
TGI: 15.9 µM

Compound: Cc1cn(C2CC(N)C(CN)O2)c(=O)[nH]c1=O (stereo not given)
Assay System: PC-3 prostate
TGI: > 100 µM

Compound: COc1c(C2CC(=O)Nc3c2cnn3Cc2ccco2)cc2c(c1OC)OCO2 (stereo not given)
Assay System: PC-3 prostate
TGI: > 100 µM

Compound: C=C1CCC2C(/C=C(\C)CCC1O)OC(=O)C2C (stereo not given)
Assay System: PC-3 prostate
TGI: > 100 µM

What TGI value was documented for this compound, C=CC(=O)N[C@H]1C=C(C)c2c(-c3cnc4ccccc4c3)c3c(N)ncnc3n2C1 ? > 100 µM

What TGI value was documented for this compound, CN(C)CC(=O)N1CCC(c2ccc(NC(=O)c3ncc(C#N)[nH]3)c(C3=CCCCC3)c2)CC1 ? 25.5 µM

What TGI value was documented for this compound, Cc1ccc2c(C(C[N+](=O)[O-])c3cccs3)c(-c3ccccc3)[nH]c2c1 (stereo not given) ? 16.1 µM

What TGI value was documented for this compound, CC(=O)OCC1OC(N2C(=O)/C(=C\c3ccc(Cl)cc3)C(N)=Nc3ccccc32)C(OC(C)=O)C(OC(C)=O)C1OC(C)=O (stereo not given) ? 59.8 µM

What TGI value was documented for this compound, COc1ccc(N2C(=O)C3c4[nH]c5ccc([N+](=O)[O-])cc5c4C4CCC(C(C)(C)C)CC4C3C2=O)cc1 (stereo not given) ? > 100 µM

What TGI value was documented for this compound, Cc1ccccc1C1OC1C(=O)c1ccccc1N (stereo not given) ? > 100 µM

What TGI value was documented for this compound, O=C1CC(C(O)CO)CC(=O)N1 (stereo not given) ? > 100 µM
